system: velvetleaf; experiment: Test B pre/postemergence velvetleaf; assay type: in vivo, Abutilon theophrasti; conditions: Preemergence, Rate 125 g/ha; scale 0 to 10, 0 is no effect, 10 is complete control

>  <compound>
CC(C)N(C(=O)n1oc(=O)n(CC2CCC2)c1=O)c1ccc(F)cc1F

>  <target under test>
velvetleaf

>  <Velvetleaf plant response rating>
0

$$$$
>  <compound>
CC(C)N(C(=O)n1oc(=O)n(CCCCF)c1=O)c1ccc(F)cc1F

>  <target under test>
velvetleaf

>  <Velvetleaf plant response rating>
6

$$$$
>  <compound>
COC(=O)CCCn1c(=O)on(C(=O)N(c2ccc(F)cc2F)C(C)C)c1=O

>  <target under test>
velvetleaf

>  <Velvetleaf plant response rating>
0

$$$$
>  <compound>
CC(C)N(C(=O)n1oc(=O)n(CCC2OCCCO2)c1=O)c1ccccc1

>  <target under test>
velvetleaf

>  <Velvetleaf plant response rating>
0

$$$$
>  <compound>
CC(C)N(C(=O)n1oc(=O)n(CCNC(=O)CCl)c1=O)c1ccccc1

>  <target under test>
velvetleaf

>  <Velvetleaf plant response rating>
0

$$$$
>  <compound>
CC(C)N(C(=O)n1oc(=O)n(C(C)C(=O)c2ccccc2)c1=O)c1ccc(F)cc1F (stereo not drawn)

>  <target under test>
velvetleaf

>  <Velvetleaf plant response rating>
0

$$$$
